B1: TPR t1 (parent)
chain: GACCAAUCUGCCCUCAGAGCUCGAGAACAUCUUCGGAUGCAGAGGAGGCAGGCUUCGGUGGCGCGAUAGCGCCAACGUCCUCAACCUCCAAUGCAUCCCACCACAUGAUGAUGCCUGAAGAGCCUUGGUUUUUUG

variants of: B1; assay: polymerase ribozyme fitness, log enrichment relative to wild type (log ratio); higher = more active; in vitro selection for triplet polymerase activity
Below, each entry is listed with its recorded polymerase ribozyme fitness (log ratio).
# output: bare number, no unit

Consider the following illustrative entries.
Q. Indicate the recorded polymerase ribozyme fitness (log ratio) value for this variant: C98U C114A
A. -3.47

Q. Indicate the recorded polymerase ribozyme fitness (log ratio) value for this variant: G36C A50C G71A A118U G120A
A. -1.49

Q. Indicate the recorded polymerase ribozyme fitness (log ratio) value for this variant: C8G C73U C86U
A. 0.186

Q. Indicate the recorded polymerase ribozyme fitness (log ratio) value for this variant: A50G A91C
A. -1.05

Q. Indicate the recorded polymerase ribozyme fitness (log ratio) value for this variant: C8G C12G U59G U129C
A. 0.2

Q. Indicate the recorded polymerase ribozyme fitness (log ratio) value for this variant: C8A A29U G69U
A. -0.0842

Q. Indicate the recorded polymerase ribozyme fitness (log ratio) value for this variant: C20A U96A C102G C114A
A. -5.84

Q. Indicate the recorded polymerase ribozyme fitness (log ratio) value for this variant: G47A C114A
A. -2.59

Q. Indicate the recorded polymerase ribozyme fitness (log ratio) value for this variant: C12A A46U C82U
A. -1.99

Q. Indicate the recorded polymerase ribozyme fitness (log ratio) value for this variant: A18C U87G U132A
A. -2.91

Others:
Q. Indicate the recorded polymerase ribozyme fitness (log ratio) value for this variant: A16G C76G G120A
A. -2.25

Q. Indicate the recorded polymerase ribozyme fitness (log ratio) value for this variant: G51U G113U
A. -6.05

Q. Indicate the recorded polymerase ribozyme fitness (log ratio) value for this variant: G42U G120U
A. -1.31

Q. Indicate the recorded polymerase ribozyme fitness (log ratio) value for this variant: G69C C115U G128A
A. -4.75

Q. Indicate the recorded polymerase ribozyme fitness (log ratio) value for this variant: A5U C73A
A. -0.847

Q. Indicate the recorded polymerase ribozyme fitness (log ratio) value for this variant: G10C C73A C101U U130C
A. -0.689

Q. Indicate the recorded polymerase ribozyme fitness (log ratio) value for this variant: C15U G52A A91G
A. -2.95

Q. Indicate the recorded polymerase ribozyme fitness (log ratio) value for this variant: C3U G77A A121U
A. 2.03

Q. Indicate the recorded polymerase ribozyme fitness (log ratio) value for this variant: C12U U133G
A. -0.256

Q. Indicate the recorded polymerase ribozyme fitness (log ratio) value for this variant: C15G A50U U109A
A. -6.25

Q. Indicate the recorded polymerase ribozyme fitness (log ratio) value for this variant: C20A G60A G113C
A. -5.06

Q. Indicate the recorded polymerase ribozyme fitness (log ratio) value for this variant: G39U C72G C82G
A. -2.35

Q. Indicate the recorded polymerase ribozyme fitness (log ratio) value for this variant: C73U C124A G127C
A. 1.61

Q. Indicate the recorded polymerase ribozyme fitness (log ratio) value for this variant: A41C G44U U87C
A. -1.33

Q. Indicate the recorded polymerase ribozyme fitness (log ratio) value for this variant: A37C G42U G48C A50U C70U G120U C124U
A. -3.73

Q. Indicate the recorded polymerase ribozyme fitness (log ratio) value for this variant: C53A A66G C123U
A. 0.367

Q. Indicate the recorded polymerase ribozyme fitness (log ratio) value for this variant: U21C U55A U78A U131A
A. -0.459

Values compiled from the RNAGym collection of RNA variant scans (doi:10.1073/pnas.2313332121).
